# MEASUREMENT TARGET: DRB3*0101 (Homo sapiens, UniProt P01903+P79483)
# PROTOCOL NOTES: biochemical
MEASURED PROPERTY: IC50 (nM)
Hi! Could you send only the number? It should be in nM, unit omitted.

# SMILES, MEASURED PROPERTY, UNIT TEXT, MEASUREMENT
records = [
    ("CSCC[C@H](NC(=O)[C@H](CCSC)NC(=O)[C@H](CC(N)=O)NC(=O)[C@H](Cc1ccc(O)cc1)NC(=O)[C@@H](NC(=O)[C@H](CS)NC(=O)[C@H](CO)NC(=O)CN)C(C)C)C(=O)NCC(=O)N[C@@H](CCCCN)C(=O)N[C@@H](CCCNC(=N)N)C(=O)N[C@@H](CCC(=O)O)C(=O)N[C@@H](CCCCN)C(=O)N[C@@H](CCCCN)C(=O)N[C@@H](CC(C)C)C(=O)NCC(=O)N[C@@H](CCC(=O)O)C(=O)O", "IC50", "nM", 1760),
]

Briefly, IC50 measured for CC(C)[C@H](NC(=O)[C@@H]1CCCN1C(=O)[C@@H](NC(=O)[C@H](C)NC(=O)[C@H](CO)NC(=O)[C@@H](N)CS)C(C)C)C(=O)N[C@@H](Cc1c[nH]cn1)C(=O)N[C@@H](Cc1c[nH]c2ccccc12)C(=O)N[C@H](C(=O)N1CCC[C@H]1C(=O)N[C@H](C(=O)N[C@@H](CO)C(=O)N[C@@H](CCCNC(=N)N)C(=O)N[C@H](C(=O)N[C@H](C(=O)N[C@@H](Cc1c[nH]c2ccccc12)C(=O)O)[C@@H](C)O)[C@@H](C)O)[C@@H](C)O)C(C)C : 2340

Briefly, IC50 measured for CC[C@H](C)[C@H](NC(=O)CNC(=O)[C@H](CO)NC(=O)[C@H](CCCCN)NC(=O)[C@@H](N)CCCCN)C(=O)N[C@H](C(=O)N[C@@H](CCC(=O)O)C(=O)N[C@H](C(=O)N[C@@H](CC(=O)O)C(=O)N[C@@H](CCCNC(=N)N)C(=O)N[C@H](C(=O)N[C@@H](CCC(=O)O)C(=O)N[C@@H](C)C(=O)N[C@@H](CCCCN)C(=O)N[C@@H](CCC(=O)O)C(=O)NCC(=O)N[C@@H](CC(C)C)C(=O)O)[C@@H](C)O)C(C)C)[C@@H](C)O : 5380

Briefly, IC50 measured for CC[C@H](C)[C@H](NC(=O)[C@@H](NC(=O)[C@H](CC(C)C)NC(=O)[C@H](CC(N)=O)NC(=O)[C@H](CCCNC(=N)N)NC(=O)[C@H](CCCCN)NC(=O)[C@H](CCCCN)NC(=O)[C@H](Cc1ccccc1)NC(=O)[C@H](CCSC)NC(=O)[C@H](CCC(=O)O)NC(=O)[C@@H](N)CCC(=O)O)[C@@H](C)O)C(=O)N[C@@H](CCSC)C(=O)N[C@@H](CC(=O)O)C(=O)N[C@@H](CC(C)C)C(=O)N[C@@H](Cc1c[nH]cn1)C(=O)O : 1260

Briefly, IC50 measured for CC(C)C[C@H](NC(=O)CNC(=O)[C@H](CCC(=O)O)NC(=O)CNC(=O)[C@H](CCC(=O)O)NC(=O)[C@@H](NC(=O)CNC(=O)[C@H](CO)NC(=O)[C@H](Cc1ccc(O)cc1)NC(=O)[C@H](CO)NC(=O)[C@H](CC(N)=O)NC(=O)[C@H](CCC(=O)O)NC(=O)[C@H](CCCNC(=N)N)NC(=O)[C@H](CO)NC(=O)[C@H](Cc1ccccc1)NC(=O)[C@H](Cc1c[nH]c2ccccc12)NC(=O)[C@@H](N)Cc1c[nH]cn1)C(C)C)C(=O)O : 1160
